- assay.overview: folding stability dG unfold (combined trypsin and chymotrypsin); higher = more stable
Mark 1.0 for reported folding stability dG unfold of 0.4 kcal/mol or greater; mark 0.0 for anything smaller.

Below, 6 sequences whose answers are already recorded.
- seq.string: "SAGGSAGGSAGMIVRPVTVTIIDPTNSTPVKTFEALELPDELVIPEEVAKQFSPENVLVRSAGGSAGGSAGG [r11_725_JUSTAS]"
  group.label: 0.0
- seq.string: "SAGGPNFMFRVKMPHPRPKKDPEDGKEKWRPQRHEHTVPFPADDPEQALDELADNMPPNNFKITDITSAGGS [r16_459_TrROS]"
  group.label: 0.0
- seq.string: "SMTAEEIAERLARALEEAGIRRVEVEVTVEYDPETDEVTVTVTIRVEPAPEAPPEEEEERREREEREAEESA [r9_440_TrROS_Hall]"
  group.label: 1.0
- seq.string: "SAGGSAGGSAGMTVTTITKTYPFDPNKSLSFTVPPGATITDKKTDADIAKGTVTVTVTVASAGGSAGGSAGG [r11_701_JUSTAS]"
  group.label: 1.0
- seq.string: "SAGGSATLTLEAEFRLEDGTTVRVRVEVSPDGTVRIEVEVLPAPPPPPKVEVKEVFTTADGRKVLLSAGGSA [r2_78_TrROS_Hall]"
  group.label: 1.0
- seq.string: "SAGGMITTEREVEVPPDELDEVIERLKAEVAAQPLEPAEDIKILEIEEKEEKAVIKYKVTAKVEGEKLLSAG [r5_575_JUSTAS]"
  group.label: 0.0

Assess whether reported folding stability dG unfold for SAMKIAKVTYEPVKVDGKELLLFKVEIVHSETGEKEEKTFLTEDPEDFIENLLKHPDIDIVEILEFKEGSAG [r14_464_TrMRF] sits at 0.4 kcal/mol or higher.
1.0

From: the supplement of paper PMC12764529
